Tested on: SF-268
protocol-details: NCI tumour cell line growth inhibition, 48 h
Activity calls are given as the source filed them. Cut-off read from the data, not from the text of the source: active = GI50 up to about 1.1 µM and inactive = higher.
Possible outcomes: Y for active, N for inactive

| compound | class-label |
| --- | --- |
| CCN(CC)c1ccc(/C=C/c2ccnc3ccccc23)cc1 | N |
| C=C(O)c1ccccc1C#Cc1ccccc1C(=O)OC | N |
| CC(=O)NNc1nc(C)c(C(=O)/C=C/c2cccc([N+](=O)[O-])c2)s1 | N |
| CC1OC(CC(=O)O)Cc2c(O)c3c(c(O)c21)C(=O)C=C(C1=CC(=O)c2c(O)c4c(c(O)c2C1=O)CC(CC(=O)O)OC4C)C3=O (stereo not drawn) | N |
| N#Cc1cnc(-n2[nH]c3c(c2=O)CCCC3)[nH]c1=O | N |
| CNC(=O)/C=C/C1=CN2C(=O)c3ccc(C)c(O)c3NC(OC)C2C1 (stereo not drawn) | Y |
| O=C1c2ccccc2-c2nnc(-c3ccc(Cl)cc3)cc21 | N |
| Cc1cc(N(CCC#N)CCC#N)ccc1/C=C1\SC(=S)NC1=O | N |
| CCN(C(=O)N[C@@H](C)C(=O)N[C@@H](Cc1ccccc1)C(=O)OC)c1ccccc1 | N |
| O=c1ccc2ccccc2c2ccccc12 | N |
| CCC1=C(c2ccc(OC)cc2)CC[C@]2(CCNC2=O)[C@@H]1C | N |
| NNC(=O)c1c(SCc2ccccc2)nc2c3ccccc3ccn12 | N |
| C[C@@H]1CCC([C@@H](C)[C@H]2CC[C@H]3[C@@H]4CC[C@H]5C[C@@H](O)CC[C@]5(C)[C@H]4CC[C@]23C)=NC1 | N |
| COC[C@@H]1[C@H]2OC(C)(C)O[C@H]2C(=O)N1C(=O)c1ccc(OC)cc1 | N |
| CCOC(=O)C(=[N+]=[N-])C(=O)CSC#N | N |
| O=C(O)c1cnc2cc(OCc3ccccc3)ccc2c1O | N |
| CCc1c(O)cc(=O)oc1-c1ccc(OC)c(OC)c1 | N |
| Cn1c(SCc2c[nH]c3ccccc23)nnc1-c1ccc(Cl)cc1Cl | N |
| Cc1nc2nnc(CCCCCCCCc3nnc4nc(C)[nH]n34)n2[nH]1 | N |
| COC1(C)CC2N(C(=O)c3ccccc3)N=C(c3ccccc3)CC2(C)O1 (stereo not drawn) | N |
| COC(=O)C1=NN2c3ccccc3CN([C@@H](C)c3ccccc3)C(=O)[C@H]2[C@@H]1C | N |
| CC1(c2nc3cc(Cl)c(Cl)cc3[nH]2)CCC(CO)C(C)(C)O1 (stereo not drawn) | N |
| CCCCCCCCCCCCCC(=S)N/C=C/OC | N |
| O=C1c2ccc3cc(CCl)cc(O)c3c2C(=O)c2cccc(O)c21 | N |
| CC1(c2ccc(Cl)cc2)N=C(NCCO)c2ccccc21 (stereo not drawn) | N |
| C[n+]1cn(-c2nc3ccccc3nc2[N-]S(=O)(=O)c2ccccc2)c2ccccc21 | N |
| CC1(C)CC(=O)C(=CNC(=O)c2ccncc2)C(=O)C1 | N |
| Cc1ccc(S(=O)(=O)NC(C(=O)O)C(C)C)cc1 (stereo not drawn) | N |
| CCC1=C(C[C@H]2NCCc3cc(OC)c(OC)cc32)C[C@H]2c3cc(OC)c(OC)cc3CCN2C1 | Y |
| CC(=O)NC1C(OCc2ccccc2)OC(CO)C(O)C1OC(C)C(=O)N[C@@H](C)C(=O)N[C@H](CCC(=O)OCCNc1c2ccccc2nc2cccc([N+](=O)[O-])c12)C(N)=O (stereo partly drawn) | Y |
| C1CN(c2nc3c(nnc4nc(N5CCOCC5)sc43)s2)CCO1 | N |
| NC(CCCCNC(=O)C(Cc1ccccc1)NC(=O)OCc1ccccc1)C(=O)NC(CCCCNC(=O)C(Cc1ccccc1)NC(=O)OCc1ccccc1)C(=O)NC(CCCCNC(=O)C(Cc1ccccc1)NC(=O)OCc1ccccc1)C(=O)NC(CCCCNC(=O)C(Cc1ccccc1)NC(=O)OCc1ccccc1)C(=O)NC(CCCCNC(=O)C(Cc1ccccc1)NC(=O)OCc1ccccc1)C(=O)NC(CCCCNC(=O)C(Cc1ccccc1)NC(=O)OCc1ccccc1)C(=O)O (stereo not drawn) | N |
| O=C1NN=C(O)C2C3c4ccccc4C(c4ccccc43)C12 (stereo not drawn) | N |
| CCOC(=O)C1=C(O)C2C3CC4C2C(O)=C(C(=O)OCC)C2C1C3C42 (stereo not drawn) | N |
| O=C1N=C(c2ccccc2)OC1C(=O)c1ccccc1 (stereo not drawn) | N |
| CCCCNC(=NC#N)NCCCC | N |
| O=C(c1ccccc1)c1nnn(Cc2cccc(Cl)c2)c1C(=O)c1ccccc1 | N |
| CC(C)(C)c1ccc(OCCOCCOc2ccc(C(C)(C)C)cc2S(N)(=O)=O)c(S(N)(=O)=O)c1 | N |

###

System: OVCAR-5
protocol-details: NCI tumour cell line growth inhibition, 48 h
The source made the active and inactive calls. Rule as the data show it: active = GI50 up to about 1.1 µM and inactive = higher.
Possible outcomes: T (active), F (inactive)

| compound | class-label |
| --- | --- |
| CC(C)(C)OC(=O)CN1CCNCCN(CC(=O)OC(C)(C)C)CCNCC1 | F |
| NC(CCCCNC(=O)C(Cc1ccccc1)NC(=O)OCc1ccccc1)C(=O)NC(CCCCNC(=O)C(Cc1ccccc1)NC(=O)OCc1ccccc1)C(=O)NC(CCCCNC(=O)C(Cc1ccccc1)NC(=O)OCc1ccccc1)C(=O)NC(CCCCNC(=O)C(Cc1ccccc1)NC(=O)OCc1ccccc1)C(=O)NC(CCCCNC(=O)C(Cc1ccccc1)NC(=O)OCc1ccccc1)C(=O)NC(CCCCNC(=O)C(Cc1ccccc1)NC(=O)OCc1ccccc1)C(=O)O (configuration not stated) | F |
| CC(=O)NC1C(OCc2ccccc2)OC(CO)C(O)C1OC(C)C(=O)N[C@@H](C)C(=O)N[C@H](CCC(=O)OCCNc1c2ccccc2nc2cccc([N+](=O)[O-])c12)C(N)=O (some centres not stated) | T |
| O=C1OC[C@@H]2[C@@H](O)CCCCCN12 | F |
| Cc1cccc(NC(=O)C(=O)Cc2nc3ccccc3nc2O)c1C | F |
| CC(=O)NNc1nc(C)c(C(=O)/C=C/c2cccc([N+](=O)[O-])c2)s1 | F |
| Cc1c2c(OCC(O)CN3CCN(c4ccccc4)CC3)nn(C)c(=O)c2c(C)n1-c1ccccc1 (configuration not stated) | F |

###

System: T47D
protocol-details: NCI tumour cell line growth inhibition, 48 h
Calls of active or inactive are those of the source. Cut-off read from the data, not from the text of the source: active = GI50 up to about 1.1 µM and inactive = higher.
Outcome codes: 1.0 for active, 0.0 for inactive

| compound | system | class-label |
| --- | --- | --- |
| OCCNCNc1nc(NCNCCO)nc(N(CNCCO)CNCCO)n1 | T47D | 0.0 |
| CC1CC(C)[C@H](O)C([C@H](O)CC2CC(=O)N(C)C(=O)C2)C1 (stereo not given in full) | T47D | 0.0 |
| COc1ccc2c(c1)C(=O)CC1c3cnccc3C(=O)N21 (stereo not given) | T47D | 0.0 |
| O=C1OC[C@@H]2[C@@H](O)CCCCCN12 | T47D | 0.0 |
| c1ccc2c3c([nH]c2c1)C1c2[nH]c4ccccc4c2CCN1CC3 | T47D | 0.0 |
| OC/C=C/[C@H](OCc1ccccc1)[C@H](/C=C/CO)OCc1ccccc1 | T47D | 0.0 |
| CC(C)C1OC(=O)C=C1Sc1ccccc1 (stereo not given) | T47D | 0.0 |
| O=C(N/N=C/c1ccc(O)cc1)NNCCO | T47D | 0.0 |
| Cc1c(N)nc(C2CC(=O)N2CC(N)C(N)=O)nc1C(=O)NC(C(=O)NC(C)C(O)C(C)C(=O)NC(C(=O)NCCc1nc(-c2nc(C(=O)NCCNCC(C)O)cs2)cs1)C(C)O)C(OC1OC(CO)C(O)C(O)C1OC1OC(CO)C(O)C(OC(N)=O)C1O)c1c[nH]cn1 (stereo not given) | T47D | 0.0 |
| CC1=CC(=O)C(=C(C)C)CC1 | T47D | 0.0 |
| NNC(=O)c1c(SCc2ccccc2)nc2c3ccccc3ccn12 | T47D | 0.0 |
| CC(C)[Si]1(C(C)C)OCC2OC(N3C(=O)NC(=O)C[C@@H]3C(O)c3ccccc3)CC2O[Si](C(C)C)(C(C)C)O1 (stereo not given in full) | T47D | 0.0 |
| CCN(C(=O)N[C@@H](C)C(=O)N[C@@H](Cc1ccccc1)C(=O)OC)c1ccccc1 | T47D | 0.0 |
| COC(OC)(c1ccccc1)C(Br)Br | T47D | 0.0 |
| COC(=O)C1=C(CCC[C@H](C)O[Si](C)(C)C(C)(C)C)NC(=O)N2[C@@H](CCO)CC[C@H]12 | T47D | 0.0 |
| O=C1O/C(=C\C=C\CO)C=C1/C=C/CO [LISSOCLINOLIDE] | T47D | 0.0 |
| C[C@@H]1CCC([C@@H](C)[C@H]2CC[C@H]3[C@@H]4CC[C@H]5C[C@@H](O)CC[C@]5(C)[C@H]4CC[C@]23C)=NC1 | T47D | 0.0 |
| Cc1ccc(NC(=O)CC(=O)n2nc(C)c(/N=N/c3cccc(C)c3)c2C)cc1 | T47D | 0.0 |
| CCC/C=C/c1cc2c(cc1O)CC[C@@H]1[C@@H]2CC[C@]2(C)[C@@H](O)CC[C@@H]12 | T47D | 0.0 |
| [N-]=[N+]=NC[C@H]1OCO[C@H](CN=[N+]=[N-])[C@H]2OCCOCCOc3ccccc3OCCOCCO[C@@H]21 | T47D | 0.0 |
| COc1ccccc1CNCc1nc2ccccc2[nH]1 | T47D | 0.0 |
| Oc1ccc2ccccc2c1Cc1c(O)ccc2ccccc12 | T47D | 0.0 |
| Brc1ccc2c([C@H]3CN[C@@H](c4c[nH]c5cc(Br)ccc45)CN3)c[nH]c2c1 | T47D | 0.0 |
| CN1CCOC1(C)CO (stereo not given) | T47D | 0.0 |
| OCC(O)C(O)C(C=NNc1ncnc2ccc(Br)cc12)=NNc1ncnc2ccc(Br)cc12 (stereo not given) | T47D | 1.0 |
| CC1(c2ccc(Cl)cc2)N=C(NCCO)c2ccccc21 (stereo not given) | T47D | 0.0 |
| CCC1CN(C(=O)c2ccccc2)C(Cc2c[nH]c3ccccc23)C(=O)C1CC(=O)OC (stereo not given) | T47D | 0.0 |
| CCc1c(O)cc(=O)oc1-c1ccc(OC)c(OC)c1 | T47D | 0.0 |
| Cn1c2ccccc2n2c(=O)c3cc([N+](=O)[O-])ccc3c(C#N)c12 | T47D | 0.0 |
| O=C1/C(=C/c2ccccc2)CN(C(=O)OCc2ccccc2)C/C1=C\c1ccccc1 | T47D | 0.0 |
| CCOC(=O)c1nc2ccc(C(F)(F)F)cc2nc1Oc1ccc(F)cc1 | T47D | 0.0 |
| COC(=O)c1ccccc1CC1Cc2ccc3c(c2C1=O)CCC3 (stereo not given) | T47D | 0.0 |
| O=C1c2ccccc2C(=O)c2c1oc1cc(O)c(Cl)cc21 | T47D | 0.0 |
| C1CN(c2nc3c(nnc4nc(N5CCOCC5)sc43)s2)CCO1 | T47D | 0.0 |
| O=C1c2ccccc2-c2nnc(-c3ccc(Cl)cc3)cc21 | T47D | 0.0 |
| c1cc2nnc1SCCSCCSCCSc1ccc(nn1)SCCSCCSCCS2 | T47D | 0.0 |
| CO[C@H]1C=CO[C@@]2(C)Oc3c(C)c(O)c4c(O)c(c(CN5CCN(C)CC5)c(O)c4c3C2=O)NC(=O)/C(C)=C\C=C[C@H](C)[C@H](O)C(C)[C@@H](O)C(C)[C@H](OC(C)=O)[C@@H]1C (stereo not given in full) | T47D | 0.0 |
| CN(O)C(=O)c1ccc(OCc2cccc(Cl)c2)cc1 | T47D | 0.0 |
| O=C1c2ccccc2S(=O)(=O)c2ccccc21 | T47D | 0.0 |
| CCOC(=O)C1(C/C=C\CBr)CCCCCCCCCCC1=O (stereo not given) | T47D | 0.0 |
